biological target: KRAS G12S (Homo sapiens, UniProt P01116+P62937, G12S); assay: Disruption of BRAF RBD interaction with Ras (FRET / MOA assay, with Cyclophilin A); type: biochemical; conditions: read-out: KRAS G12S FRET data, IC50
Sequence (P01116 1-169 isoform P01116-2 G12S limits assumed): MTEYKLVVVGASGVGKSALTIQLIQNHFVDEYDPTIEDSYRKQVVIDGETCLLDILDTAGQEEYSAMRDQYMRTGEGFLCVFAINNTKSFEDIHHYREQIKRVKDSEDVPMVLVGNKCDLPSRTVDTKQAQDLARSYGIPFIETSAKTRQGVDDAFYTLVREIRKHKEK
Sequence (P62937 whole entry): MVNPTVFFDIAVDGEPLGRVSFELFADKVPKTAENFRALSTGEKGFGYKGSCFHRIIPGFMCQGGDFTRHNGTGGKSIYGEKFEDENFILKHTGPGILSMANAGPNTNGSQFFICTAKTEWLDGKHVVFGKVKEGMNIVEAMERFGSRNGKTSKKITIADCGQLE
Listing of entries alongside the reported IC50.

Some solved entries appear below for comparison.
COMPOUND	ASSAY TARGET	READING
CCn1c(-c2cccnc2[C@H](C)OC)c2c3cc(ccc31)-c1cc(O)cc(c1)C[C@H](NC(=O)[C@H](C(C)C)N(C)C(=O)[C@H]1CCN(C(=O)OC3COC3)C1)C(=O)N1CCC[C@H](N1)C(=O)OCC(C)(C)C2	KRAS G12S (Homo sapiens, UniProt P01116+P62937, G12S)	10 to 100 nM
CCn1c(-c2cccnc2[C@H](C)OC)c2c3cc(ccc31)-c1csc(n1)C[C@H](NC(=O)[C@H](C(C)C)N(C)C(=O)N(C)[C@@H]1CCCN(C)C1)C(=O)N1CCC[C@H](N1)C(=O)OCC(C)(C)C2	KRAS G12S (Homo sapiens, UniProt P01116+P62937, G12S)	100 to 1000 nM
C=CC(=O)N1CC[C@H](C(=O)N(C)[C@H](C(=O)N[C@H]2Cc3cc(O)cc(c3)-c3ccc4c(c3)c(c(-c3cccnc3COCC)n4CC)CC(C)(C)COC(=O)[C@@H]3CCCN(N3)C2=O)C(C)C)C1	KRAS G12S (Homo sapiens, UniProt P01116+P62937, G12S)	100 to 1000 nM
CCn1c(-c2cccnc2[C@H](C)OC)c2c3cc(ccc31)-c1cc(O)cc(c1)C[C@H](NC(=O)[C@H](C(C)C)N(C)C(=O)[C@@H]1CC1(C)C)C(=O)N1CCC[C@H](N1)C(=O)OCC(C)(C)C2	KRAS G12S (Homo sapiens, UniProt P01116+P62937, G12S)	100 to 1000 nM
CCn1c(-c2cnccc2[C@H](C)OC)c2c3cc(ccc31)-c1cc(O)cc(c1)C[C@H](NC(=O)[C@H](C(C)C)N(C)C(C)=O)C(=O)N1CCC[C@H](N1)C(=O)OCC(C)(C)C2	KRAS G12S (Homo sapiens, UniProt P01116+P62937, G12S)	100 to 1000 nM
C=CC(=O)N1CC[C@H](C(=O)N(C)[C@H](C(=O)N[C@H]2Cc3cc(O)cc(c3)-c3ccc4c(c3)c(c(-c3ccc(CC(=O)O)cc3)n4CC)CC(C)(C)COC(=O)[C@@H]3CCCN(N3)C2=O)C(C)C)C1	KRAS G12S (Homo sapiens, UniProt P01116+P62937, G12S)	> 10000 nM
CCn1c(-c2cccnc2[C@H](C)OC)c2c3cc(ccc31)-c1cc(O)cc(c1)C[C@H](NC(=O)[C@H](C(C)C)N(C)C(=O)C1(CO)CC1)C(=O)N1CCC[C@H](N1)C(=O)OCC(C)(C)C2	KRAS G12S (Homo sapiens, UniProt P01116+P62937, G12S)	100 to 1000 nM
CCn1c(-c2cccnc2[C@H](C)OC)c2c3cc(ccc31)-c1csc(n1)C[C@H](NC(=O)[C@H](C(C)C)N(C)C(=O)[C@H]1CCN(C)C1)C(=O)N1CCC[C@H](N1)C(=O)OCC(C)(C)C2	KRAS G12S (Homo sapiens, UniProt P01116+P62937, G12S)	1000 to 10000 nM

So what's the measured IC50 for this one? C=CC(=O)N1CC[C@@H](N(C)C(=O)N(C)[C@H](C(=O)N[C@H]2Cc3nc(cs3)-c3ccc4c(c3)c(c(-c3cccnc3[C@H](C)OC)n4CC(F)(F)F)CC(C)(C)COC(=O)[C@@H]3CCCN(N3)C2=O)C(C)C)C1 (atropisomer, axis not shown)
100 to 1000 nM
